Data origin, for the record: patent US8629112B2

List of EC50 values.
- TARGET_UNDER_TEST: CXCR7 (Homo sapiens)
- Construct: host or cells: CHO (PathHunter CHO-CXCR7 β-arrestin cells)
- TEST_NAME: CXCR7 β-arrestin recruitment assay (PathHunter CHO-CXCR7, agonistic assay)
- Assay type: cell-based
- CONDITION_SET: CHO CXCR7 β-arrestin cells, agonistic assay, 90 min at 37° C., chemiluminescence; read-out: β-Arrestin EC50
Square brackets hold non-standard residues; d marks the D form. Peptide text beside a SMILES is read from it. Tic = O=C(O)[C@@H]1Cc2ccccc2CN1; Aze = O=C(O)[C@@H]1CCN1

{"MOLECULE": "N=C(N)NCCC[C@@H]1NC(=O)[C@H](Cc2c[nH]c3ccccc23)NC(=O)[C@@H](CCCNC(=N)N)NC(=O)[C@H](Cc2c[nH]c3ccccc23)NC(=O)[C@@H]2CCN2C(=O)[C@H]2CCCN2C1=O [compound 51, cyclo(-Trp-^DArg-Trp-Arg-^DPro-Azt-)] (cyclo([Aze]W[dR]WR[dP]))", "TARGET_UNDER_TEST": "CXCR7 (Homo sapiens)", "EC50 [nM]": 170}
{"MOLECULE": "N=C(N)NCCC[C@@H]1NC(=O)[C@@H]2Cc3ccccc3CN2C(=O)[C@H]2CCCN2C(=O)[C@H](CCCNC(=N)N)NC(=O)[C@H](Cc2c[nH]c3ccccc23)NC(=O)[C@@H](Cc2ccccc2)NC1=O [compound 6, cyclo(-Arg-^DPhe-Trp-Arg-^DPro-Tic-)] (cyclo(R[dF]WR[dP][Tic]))", "TARGET_UNDER_TEST": "CXCR7 (Homo sapiens)", "EC50 [nM]": 12.8}

====

- TARGET_UNDER_TEST: CXCR7 (Homo sapiens, UniProt P25106)
- Construct: host or cells: CHO (PathHunter CHO-CXCR7 β-arrestin cells)
- Sequence (P25106 whole entry): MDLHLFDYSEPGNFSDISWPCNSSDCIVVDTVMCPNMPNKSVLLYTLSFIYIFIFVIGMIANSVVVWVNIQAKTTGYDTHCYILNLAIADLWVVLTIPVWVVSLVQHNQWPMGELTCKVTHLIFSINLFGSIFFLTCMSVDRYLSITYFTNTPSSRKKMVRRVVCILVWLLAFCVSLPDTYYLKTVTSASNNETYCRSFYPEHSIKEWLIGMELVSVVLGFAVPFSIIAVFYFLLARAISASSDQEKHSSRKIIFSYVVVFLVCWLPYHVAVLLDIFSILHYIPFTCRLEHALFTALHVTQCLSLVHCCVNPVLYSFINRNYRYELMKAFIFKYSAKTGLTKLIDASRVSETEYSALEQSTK
- TEST_NAME: CXCR7 β-arrestin recruitment assay (PathHunter CHO-CXCR7, agonistic assay)
- Format: cell-based
- CONDITION_SET: CHO CXCR7 β-arrestin cells, agonistic assay, 90 min at 37° C., chemiluminescence; read-out: β-Arrestin EC50
Square brackets hold non-standard residues; d marks the D form. Peptide text beside a SMILES is read from it. d1Nal = N[C@H](Cc1cccc2ccccc12)C(=O)O; Tic = O=C(O)[C@@H]1Cc2ccccc2CN1

{"MOLECULE": "O=C1N[C@@H](Cc2c[nH]c3ccccc23)C(=O)N2CCC[C@@H]2C(=O)N2Cc3ccccc3C[C@H]2C(=O)N[C@@H](Cc2c[nH]cn2)C(=O)N[C@H](Cc2cccc3ccccc23)C(=O)N[C@H]1Cc1c[nH]cn1 [compound 39, cyclo(-His-^D1Nal-His-Trp-^DPro-Tic-)] (cyclo(HW[dP][Tic]H[d1Nal]))", "EC50, nM": 269}

====

- TARGET_UNDER_TEST: CXCR7 (Homo sapiens)
- Construct: host or cells: CHO (PathHunter CHO-CXCR7 β-arrestin cells)
- TEST_NAME: CXCR7 β-arrestin recruitment assay (PathHunter CHO-CXCR7, agonistic assay)
- Format: cell-based
- CONDITION_SET: CHO CXCR7 β-arrestin cells, agonistic assay, 90 min at 37° C., chemiluminescence; read-out: β-Arrestin EC50
Square brackets hold non-standard residues; d marks the D form. Peptide text beside a SMILES is read from it. Tic = O=C(O)[C@@H]1Cc2ccccc2CN1; dOrn = NCCC[C@@H](N)C(=O)O
List of EC50 values.
PARAMETER: EC50 (nM)

{"MOLECULE": "O=C1N[C@@H](Cc2c[nH]cn2)C(=O)N2CCC[C@@H]2C(=O)N2Cc3ccccc3C[C@H]2C(=O)N[C@@H](Cc2c[nH]c3ccccc23)C(=O)N[C@H](Cc2ccccc2)C(=O)N[C@H]1Cc1c[nH]c2ccccc12 [Ex. 23, cyclo(-Trp-^DPhe-Trp-His-^DPro-Tic-)] (cyclo(H[dP][Tic]W[dF]W))", "PARAMETER": "EC50", "UNIT_TEXT": "nM", "VALUE_REPORTED": 18.3}
{"MOLECULE": "CC[C@H](C)[C@@H]1NC(=O)[C@@H](Cc2ccccc2)NC(=O)[C@H](Cc2c[nH]c3ccccc23)NC(=O)[C@@H]2Cc3ccccc3CN2C(=O)[C@H]2CCCN2C(=O)[C@H](CCCNC(=N)N)NC1=O [compound 18, cyclo(-Trp-^DPhe-Ile-Arg-^DPro-Tic-)] (cyclo(IR[dP][Tic]W[dF]))", "PARAMETER": "EC50", "UNIT_TEXT": "nM", "VALUE_REPORTED": 148}
{"MOLECULE": "N=C(N)NCCC[C@@H]1NC(=O)[C@H](Cc2c[nH]c3ccccc23)NC(=O)[C@@H](CCCN)NC(=O)[C@H](Cc2c[nH]c3ccccc23)NC(=O)[C@@H]2Cc3ccccc3CN2C(=O)[C@H]2CCCN2C1=O [compound 14, cyclo(-Trp-^DOrn-Trp-Arg-^DPro-Tic-)] (cyclo(R[dP][Tic]W[dOrn]W))", "PARAMETER": "EC50", "UNIT_TEXT": "nM", "VALUE_REPORTED": 111}
